- System: blood of patients with leukemia (combined group)
- protocol text: Hemogram of blood of patients with leukemia (combined group) after exposure
- Format: cell-based
- conditions: 10 µg/ml, 3 hours, 37.0°C
Marks after values point to notes of the source that are not given here.
Destroyed cells: recorded values

| compound | target or test system | Destroyed cells |
| --- | --- | --- |
| COc1cccc2c1C(=O)c1c(O)c3c(c(O)c1C2=O)C[C@@](O)(C(=O)CO)C[C@@H]3O[C@H]1C[C@H](N)[C@H](O)[C@H](C)O1 [Doxorubicin, doxorubicin, reference compound] | blood of patients with leukemia (combined group) | 11,4±2,2 % |
| COc1cc2c(cc1OC)C(c1cc3c(cc1Cl)OCO3)NCC2 (stereo not shown) [Compound F2] | blood of patients with leukemia (combined group) | 12,9±1,8 % |
| COc1cc2c(cc1OC)C(c1cc3c(cc1Br)OCO3)NCC2 (stereo not shown) [Compound F1] | blood of patients with leukemia (combined group) | 14,8±1,8*^ # % |

Please find the next compound below.
Asked: I would be grateful if you could share the reported Destroyed cells for Nc1ccn([C@@H]2O[C@H](CO)[C@@H](O)[C@@H]2O)c(=O)n1 [Cytosar, cytarabine, reference compound] .
Given back: 9,0±1,6 %

* * *

- Tested on: blood of patients with leukemia (combined group)
- protocol text: Hemogram of blood of patients with leukemia (combined group) after exposure
- Type: cell-based
- conditions: 10 µg/ml, 3 hours, 37.0°C
measurement kind: Myelocytes

| molecule | target or test system | Myelocytes |
| --- | --- | --- |
| COc1cc2c(cc1OC)C(c1cc3c(cc1Br)OCO3)NCC2 (stereo not shown) [Compound F1] | blood of patients with leukemia (combined group) | 4,0±0,5 % |

Asked: I would be grateful if you could share the reported Myelocytes for Nc1ccn([C@@H]2O[C@H](CO)[C@@H](O)[C@@H]2O)c(=O)n1 [Cytosar, cytarabine, reference compound] .
Given back: 1,1±0,3 %

Asked: Input COc1cccc2c1C(=O)c1c(O)c3c(c(O)c1C2=O)C[C@@](O)(C(=O)CO)C[C@@H]3O[C@H]1C[C@H](N)[C@H](O)[C@H](C)O1 [Doxorubicin, doxorubicin, reference compound]
Given back: 3,3±1,2%

Asked: Input COc1cc2c(cc1OC)C(c1cc3c(cc1Cl)OCO3)NCC2 (stereo not shown) [Compound F2]
Given back: 2,5±0,6 %

* * *

- System: blood of patients with B-ALL
- protocol text: Hemogram of blood of patients with B-ALL after exposure
- Type: cell-based
- conditions: 10 µg/ml, 3 hours, 37.0°C
measurement kind: Eosinophils

A selection of reference data follows.
| molecule | target or test system | Eosinophils |
| --- | --- | --- |
| Nc1ccn([C@@H]2O[C@H](CO)[C@@H](O)[C@@H]2O)c(=O)n1 [Cytosar, cytarabine, reference compound] | blood of patients with B-ALL | 0,1±0,1% |
| COc1cc2c(cc1OC)C(c1cc3c(cc1Br)OCO3)NCC2 (stereo not shown) | blood of patients with B-ALL | 0,2±0,1% |

Asked: I would be grateful if you could share the reported Eosinophils for COc1cc2c(cc1OC)C(c1cc3c(cc1Cl)OCO3)NCC2 (stereo not shown) .
Given back: 0,0±0,0%

Asked: Input COc1cccc2c1C(=O)c1c(O)c3c(c(O)c1C2=O)C[C@@](O)(C(=O)CO)C[C@@H]3O[C@H]1C[C@H](N)[C@H](O)[C@H](C)O1 [Doxorubicin, doxorubicin, reference compound]
Given back: 0,1±0,1%

* * *

- protocol text: Acute toxicity study (LD50)
- conditions: mouse, in vivo, ip
measurement kind: LD50 at 168 h
Give the figure together with its unit, number first.

| molecule | LD50 at 168 h |
| --- | --- |
| COc1cc2c(cc1OC)C(c1cc3c(cc1Cl)OCO3)NCC2 (centres unmarked) | 220 mg/kg |

Please find the next molecule below.
Asked: I would be grateful if you could share the reported LD50 at 168 h for COc1cc2c(cc1OC)C(c1cc3c(cc1Br)OCO3)NCC2 (centres unmarked) .
Given back: 240 mg/kg

* * *

- Tested on: CCRF-CEM (CCL-119) (T-lymphoblastic leukemia)
- protocol text: MTT cytotoxicity on CCRF-CEM cells
- Format: cell-based
- conditions: Homo sapiens, 24 hours
IC50: recorded values
Numeric only. Scale: µM

| molecule | measurement kind | result unit | numeric value |
| --- | --- | --- | --- |
| COc1cc2c(cc1OC)C(c1cc3c(cc1Cl)OCO3)NCC2 (centres unmarked) | IC50 | µM | 21 |

Please find the next molecule below.
Asked: # get_value(readout= IC50, system= CCRF-CEM (CCL-119) (T-lymphoblastic leukemia)) for COc1cc2c(cc1OC)C(c1cc3c(cc1Br)OCO3)NCC2 (centres unmarked)
Given back: 36.6

* * *

Blasts: recorded values
- System: blood of patients with T-ALL
- protocol text: Hemogram of blood of patients with T-ALL after exposure
- Assay type: cell-based
- conditions: 10 µg/ml, 3 hours, 37.0°C

A selection of reference data follows.
| compound | result |
| --- | --- |
| COc1cc2c(cc1OC)C(c1cc3c(cc1Cl)OCO3)NCC2 (stereo not shown) [Compound F2] | 68,2±2,2 % |
| Nc1ccn([C@@H]2O[C@H](CO)[C@@H](O)[C@@H]2O)c(=O)n1 [Cytosar, cytarabine, reference compound] | 73,5±2,0 % |
| COc1cc2c(cc1OC)C(c1cc3c(cc1Br)OCO3)NCC2 (stereo not shown) [Compound F1] | 68,9±1,7 % |

Please find the next compound below.
Asked: # get_value(readout= Blasts, system= blood of patients with T-ALL) for COc1cccc2c1C(=O)c1c(O)c3c(c(O)c1C2=O)C[C@@](O)(C(=O)CO)C[C@@H]3O[C@H]1C[C@H](N)[C@H](O)[C@H](C)O1 [Doxorubicin, doxorubicin, reference compound]
Given back: 67,2±0,9 %

* * *

Band (s/n) neutrophils: recorded values
- Tested on: blood of patients with AML
- protocol text: Hemogram of blood of patients with AML after exposure (Example 12, Table 9)
- Format: cell-based
- conditions: AML (Table 9); 10 µg/ml; 3 hours, 37.0°C

| compound | measurement kind | result |
| --- | --- | --- |
| COc1cc2c(cc1OC)C(c1cc3c(cc1Br)OCO3)NCC2 (stereo not shown) | Band (s/n) neutrophils | 1,2±0,3% |

Asked: # get_value(readout= Band (s/n) neutrophils, system= blood of patients with AML) for Nc1ccn([C@@H]2O[C@H](CO)[C@@H](O)[C@@H]2O)c(=O)n1 [Cytosar, cytarabine, reference compound]
Given back: 1,2±0,5%

Asked: Input COc1cc2c(cc1OC)C(c1cc3c(cc1Cl)OCO3)NCC2 (stereo not shown)
Given back: 0,9±0,4%

Asked: Input COc1cccc2c1C(=O)c1c(O)c3c(c(O)c1C2=O)C[C@@](O)(C(=O)CO)C[C@@H]3O[C@H]1C[C@H](N)[C@H](O)[C@H](C)O1 [Doxorubicin, doxorubicin, reference compound]
Given back: 0,5±0,4%

* * *

- Tested on: blood of patients with AML
- protocol text: Hemogram of blood of patients with AML after exposure (Example 12, Table 9)
- Type: cell-based
- conditions: AML (Table 9); 10 µg/ml; 3 hours, 37.0°C
measurement kind: Blasts

| molecule | measurement kind | result |
| --- | --- | --- |
| COc1cc2c(cc1OC)C(c1cc3c(cc1Cl)OCO3)NCC2 (stereo not drawn) | Blasts | 65,6±2,4 % |
| Nc1ccn([C@@H]2O[C@H](CO)[C@@H](O)[C@@H]2O)c(=O)n1 [Cytosar, cytarabine, reference compound] | Blasts | 65,4±3,9 % |

Please find the next molecule below.
Asked: I would be grateful if you could share the reported Blasts for COc1cccc2c1C(=O)c1c(O)c3c(c(O)c1C2=O)C[C@@](O)(C(=O)CO)C[C@@H]3O[C@H]1C[C@H](N)[C@H](O)[C@H](C)O1 [Doxorubicin, doxorubicin, reference compound] .
Given back: 68,4±3,6 %
